- Tested System: E. coli CsgA (Escherichia coli)
- Construct: made in house; host or cells: E. coli NEB 3016 slyD::kan, pET11d
- Sequence (P28307 23-151): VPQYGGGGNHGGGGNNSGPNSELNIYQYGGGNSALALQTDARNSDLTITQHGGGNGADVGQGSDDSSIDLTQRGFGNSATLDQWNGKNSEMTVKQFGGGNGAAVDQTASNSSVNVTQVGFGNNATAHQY
- Method Summary: In vitro ThioflavinT assay of CsgA aggregation (CsgA ThT Assay)
- Format: biochemical
- Condition Set: read-out: CsgA ThT Assay (2 μM CsgA) % Control Bmax 100 μM, activity range, class symbol; CsgA 2 μM, white plates; compound 100 μM
Could you please report measured remaining activity at 100 µM for the items listed next?

Compound	Value Measured
COc1cccc(CN2CC(C(=O)O)n3c2c(-c2cccc(C(F)(F)F)c2)c(Cc2cccc4ccccc24)c(Cl)c3=O)c1 (stereo not shown)	31 to 60%
O=C(O)C1CN(Cc2ccccc2)c2c(-c3cccc(C(F)(F)F)c3)c(Cc3cccc4ccccc34)c(Br)c(=O)n21 (stereo not shown)	11 to 31%

Hi, could you look up remaining activity at 100 µM for each item in my list?
1. O=C(O)C1CN(CC2CCCCC2)c2c(-c3cccc(C(F)(F)F)c3)c(Cc3cccc4ccccc34)c(Cl)c(=O)n21 (stereo not shown)
2. O=C(O)C1CN(Cc2ccccc2)c2c(-c3cccc(C(F)(F)F)c3)c(Cc3cccc4ccccc34)cc(=O)n21 (stereo not shown)

["11 to 31%", "> 60%"]
